- System Name: Epidermal growth factor receptor (Homo sapiens, UniProt P00533, L858R)
- Sequence (P00533 25-1210 L858R limits assumed): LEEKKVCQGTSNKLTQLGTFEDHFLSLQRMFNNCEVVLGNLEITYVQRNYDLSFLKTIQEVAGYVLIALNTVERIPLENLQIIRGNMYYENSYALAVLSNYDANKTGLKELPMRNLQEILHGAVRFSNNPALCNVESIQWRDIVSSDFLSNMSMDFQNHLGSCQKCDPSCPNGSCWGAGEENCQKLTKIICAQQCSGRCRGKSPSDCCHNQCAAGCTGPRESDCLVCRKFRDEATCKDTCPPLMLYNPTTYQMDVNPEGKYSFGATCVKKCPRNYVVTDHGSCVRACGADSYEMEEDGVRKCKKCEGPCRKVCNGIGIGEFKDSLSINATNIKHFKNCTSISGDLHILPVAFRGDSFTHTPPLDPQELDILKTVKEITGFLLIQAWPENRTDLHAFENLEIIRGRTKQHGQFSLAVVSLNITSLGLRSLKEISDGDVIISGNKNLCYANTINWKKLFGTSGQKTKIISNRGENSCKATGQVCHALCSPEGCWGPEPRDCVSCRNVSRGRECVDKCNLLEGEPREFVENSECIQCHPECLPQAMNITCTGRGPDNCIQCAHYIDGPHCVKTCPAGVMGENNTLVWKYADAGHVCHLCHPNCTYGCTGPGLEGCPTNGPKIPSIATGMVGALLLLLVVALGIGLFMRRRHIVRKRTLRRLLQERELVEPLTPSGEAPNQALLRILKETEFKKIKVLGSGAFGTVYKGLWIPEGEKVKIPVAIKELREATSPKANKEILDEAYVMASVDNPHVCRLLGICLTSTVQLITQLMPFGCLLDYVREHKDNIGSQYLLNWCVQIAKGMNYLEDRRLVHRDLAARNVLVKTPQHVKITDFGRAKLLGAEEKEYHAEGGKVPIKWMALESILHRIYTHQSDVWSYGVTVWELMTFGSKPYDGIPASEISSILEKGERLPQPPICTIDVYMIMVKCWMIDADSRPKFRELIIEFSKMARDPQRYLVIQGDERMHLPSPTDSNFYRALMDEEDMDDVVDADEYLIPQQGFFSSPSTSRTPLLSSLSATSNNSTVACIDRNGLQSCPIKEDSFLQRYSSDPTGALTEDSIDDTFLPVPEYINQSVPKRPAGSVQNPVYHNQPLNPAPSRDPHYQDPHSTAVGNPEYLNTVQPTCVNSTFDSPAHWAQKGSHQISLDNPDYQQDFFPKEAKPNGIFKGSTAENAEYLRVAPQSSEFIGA
- Assay Protocol: Inhibition of GST-tagged human recombinant EGFR catalytic domain (668 to 1210 amino acids) L858R mutant expressed in Sf9 cells pre-incubated for 30 mins before ATP and substrate addition by homogeneous time-resolved FRET assay
pIC50: −log10 of the molar value.
Recorded Endpoint: pIC50

Mol	Comparative Sign	Experimental Result
COc1cc(N2CCN(C)CC2)ccc1Nc1ncc(Cl)c(Oc2cccc(NC(=O)/C(C#N)=C/c3ccncc3)c2)n1	=	6.82
COc1cc(N2CCN(C)CC2)ccc1Nc1ncc(Cl)c(Oc2cccc(NC(=O)/C(=C/c3ccc(F)cc3)C(F)(F)F)c2)n1	<	5.00
COc1cc(N2CCN(C)CC2)ccc1Nc1ncc(Cl)c(Oc2cccc(NC(=O)/C(C#N)=C/c3ccc(C#N)cc3)c2)n1	=	5.74
COc1cc(N2CCN(C)CC2)ccc1Nc1ncc(Cl)c(Oc2cccc(NC(=O)/C(C#N)=C/C3CCCC3)c2)n1	=	5.66
COc1cc(N2CCN(C)CC2)ccc1Nc1ncc(Cl)c(Oc2cccc(NC(=O)/C(C#N)=C/C(C)C)c2)n1	=	5.92
COc1cc(N2CCN(C)CC2)ccc1Nc1ncc(Cl)c(Oc2cccc(NC(C)=O)c2)n1	=	6.31
COc1cc(N2CCN(C)CC2)ccc1Nc1ncc(Cl)c(Oc2cccc(NC(=O)/C(C#N)=C/c3ccc(F)cc3)c2)n1	=	6.27
COc1cc(N2CCN(C)CC2)ccc1Nc1ncc(Cl)c(Oc2cccc(NC(=O)/C=C/C3CC3)c2)n1	=	5.55
